Every entry's value here was drawn from PubChem BioAssay (NCI).

assay: NCI Yeast Anticancer Drug Screen. Data for the mgt1 strain (AID 153); details: S. cerevisiae mgt1 mutant growth inhibition; at 1.2 µM; stronger effect = higher value
The panel holds about 79,000 compounds, 15% with a hit somewhere; the sample as a whole holds those more often.
Please respond with reported growth inhibition for every item in the list.
The reply should be a number in %, with the unit left off.

Enquiry: Any idea what growth inhibition was measured for Cc1ccc2c(c1)C1(SC(C)C(=O)N1c1ccc(Cl)cc1)C(=O)N2 (stereo not given) ?
Return: -5

Enquiry: Any idea what growth inhibition was measured for O=C(COC(=O)c1ccccc1)c1ccc(Br)cc1 ?
Return: 5

Enquiry: Any idea what growth inhibition was measured for CC12C(=O)OC(=O)C(c3ccccc31)c1ccccc12 ?
Return: -7

Enquiry: Any idea what growth inhibition was measured for N#CC(=Nc1ccccc1F)Nc1ccccc1F ?
Return: -5

Enquiry: Any idea what growth inhibition was measured for Cc1nc(-c2cc3cc([N+](=O)[O-])ccc3oc2=O)cs1 ?
Return: -1

Enquiry: Any idea what growth inhibition was measured for COc1nc2c(c(=O)n1C)N=C(c1ccccc1)[C@H](C(CC(=O)c1ccccc1)c1ccccc1)C(c1ccccc1)N2 (stereo not given in full) ?
Return: -53

Enquiry: Any idea what growth inhibition was measured for COC(=O)CC1(O)C(/C=C/c2ccccc2)C(C(=O)OC)C(=O)C(C(=O)OC)C1C(=O)OC (stereo not given) ?
Return: -2

Enquiry: Any idea what growth inhibition was measured for Cc1cccc(/C=N/NC(=S)N2CCCC2)n1 ?
Return: -13

Enquiry: Any idea what growth inhibition was measured for O=C(NNc1ccccc1)C(O)C(O)C(O)C(O)C(O)CO (stereo not given) ?
Return: 6

Enquiry: Any idea what growth inhibition was measured for O=C1c2ccccc2C(=O)N1CCCC(=O)n1cc(F)c(=O)[nH]c1=O ?
Return: 5
